tested on: ATP; experiment: switch fluorescence ratio, 500 uM ATP over buffer (Cy3 cluster intensity, sum of 5 cycles each) (fold (ratio)); higher = stronger signal-on switching upon ATP binding; sequences stand for … in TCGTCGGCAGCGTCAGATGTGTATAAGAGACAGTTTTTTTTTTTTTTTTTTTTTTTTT…TC; details: aptamer strand: ATP DNA aptamer (quencher-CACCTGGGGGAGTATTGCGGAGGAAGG + anchor), 100 nM annealed; ATP concentration: 500 uM;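 note: ATP exposure 15 min at 22 °C before imaging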
reportedEndpoint: switch fluorescence ratio
Form rule: numeric answer, no unit written next to it.

Example results:
> print(dat)
   biosequence  numericreadout
1   TTTGTATTCA            1.01
2   GTGATGTTAG            1.01

[Q] May I ask what switch fluorescence ratio has been recorded for ATACCAGGGG ?
[A] 1.08

[Q] Also GGGCAATATG , if possible.
[A] 1.17
